I'd appreciate it if you could supply viability, T/C values for the items below.
# Tested on: 299254-011-R-J1-PDC complex spheroids viability
# assay.summary: Anticancer human tumor 299254-011-R-J1-PDC patient-derived melanoma cell line growth inhibition [GQUAD]
# conditions: second compound 3.16 µM; first compound 0.1 µM; stronger effect = lower value
Give bare numbers, in %.

Some compounds with known viability, T/C results, for comparison:
{"compound": "CC1COCCN1c1cc(-c2ccnn2C)c2ccnc(-c3ccn[nH]3)c2n1 (stereo not drawn) + Cc1[nH]c2ccc(F)cc2c1-c1nc2c3cccnc3c3ncccc3c2[nH]1", "assay.system": "299254-011-R-J1-PDC complex spheroids viability", "viability, T/C, %": 71.8}
{"compound": "COc1ncnc(C2CC2)c1-c1ncc2cnn(Cc3ccc(-c4nc(C(F)(F)F)cn4C(C)C)cc3)c2n1 + Cc1cnc(CNC(=O)c2c(=O)c3ccc(N4CCCN(C)CC4)nc3n3c2sc2ccccc23)cn1", "assay.system": "299254-011-R-J1-PDC complex spheroids viability", "viability, T/C, %": 69.8}

Recall the recorded viability, T/C for C=CCn1c(=O)c2cnc(Nc3ccc(N4CCN(C)CC4)cc3)nc2n1-c1cccc(C(C)(C)O)n1 + Cc1cnc(CNC(=O)c2c(=O)c3ccc(N4CCCN(C)CC4)nc3n3c2sc2ccccc23)cn1 with 299254-011-R-J1-PDC complex spheroids viability and state it.
74.9

###

# Tested on: 299254-011-R-J1-PDC complex spheroids viability
# assay.summary: Anticancer human tumor 299254-011-R-J1-PDC cell line growth inhibition [GQUAD];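 note: spheroids exposed to the agents for seven days before readout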
# conditions: curve of first compound; second compound 0.1 µM
I'd appreciate it if you could supply IC50 values for the items below.

Some compounds with known IC50 results, for comparison:
{"compound": "O=c1[nH]cc(F)c(=O)[nH]1 + Cc1[nH]c2ccc(F)cc2c1-c1nc2c3cccnc3c3ncccc3c2[nH]1", "result.value": "> 10000 nM"}
{"compound": "C=CCn1c(=O)c2cnc(Nc3ccc(N4CCN(C)CC4)cc3)nc2n1-c1cccc(C(C)(C)O)n1 + Cc1[nH]c2ccc(F)cc2c1-c1nc2c3cccnc3c3ncccc3c2[nH]1", "result.value": "1460 nM"}
{"compound": "Cc1[nH]c2ccccc2c1CCNCc1ccc(/C=C/C(=O)NO)cc1 + CN(C)c1ccc(Nc2c3ccc(NC(=O)CCN4CCCC4)cc3nc3cc(NC(=O)CCN4CCCC4)ccc23)cc1", "result.value": "138 nM"}
{"compound": "Nc1ccn(C2OC(CO)C(O)C2(F)F)c(=O)n1 (stereo unspecified) + Cc1cnc(CNC(=O)c2c(=O)c3ccc(N4CCCN(C)CC4)nc3n3c2sc2ccccc23)cn1", "result.value": "282 nM"}
{"compound": "Nc1ccn(C2OC(CO)C(O)C2(F)F)c(=O)n1 (stereo unspecified) + Cc1[nH]c2ccc(F)cc2c1-c1nc2c3cccnc3c3ncccc3c2[nH]1", "result.value": "6460 nM"}

Now look at this one.
Dear colleague, I am looking for the recorded IC50 of the following compound: O=C(c1cc(Cc2n[nH]c(=O)c3ccccc23)ccc1F)N1CCN(C(=O)C2CC2)CC1 + CN(C)c1ccc(Nc2c3ccc(NC(=O)CCN4CCCC4)cc3nc3cc(NC(=O)CCN4CCCC4)ccc23)cc1
> 10000 nM

###

# Tested on: 299254-011-R-J1-PDC complex spheroids viability
# assay.summary: Anticancer human tumor 299254-011-R-J1-PDC cell line growth inhibition [GQUAD];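 note: spheroids exposed to the agents for seven days before readout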;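 for viability, T/C: percent viability relative to DMSO vehicle control wells = 100%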
# conditions: second compound 3.16 µM; first compound 10 µM; stronger effect = lower value
Decision: viability, T/C beneath 50% gives T; viability, T/C meeting or exceeding 50% gives F.

Reference set (5 entries):
{"molecule": "CC1COCCN1c1cc(C2(S(C)(=N)=O)CC2)nc(-c2ccnc3[nH]ccc23)n1 (stereo not given) + Cc1[nH]c2ccc(F)cc2c1-c1nc2c3cccnc3c3ncccc3c2[nH]1", "discrete.label": "T"}
{"molecule": "O=C(c1cc(Cc2n[nH]c(=O)c3ccccc23)ccc1F)N1CCN(C(=O)C2CC2)CC1 + Cc1[nH]c2ccc(F)cc2c1-c1nc2c3cccnc3c3ncccc3c2[nH]1", "discrete.label": "F"}
{"molecule": "C=CCn1c(=O)c2cnc(Nc3ccc(N4CCN(C)CC4)cc3)nc2n1-c1cccc(C(C)(C)O)n1 + Cc1[nH]c2ccc(F)cc2c1-c1nc2c3cccnc3c3ncccc3c2[nH]1", "discrete.label": "T"}
{"molecule": "CC1COCCN1c1cc(C2(O)CC3CCC(C2)O3)c2cnn(-c3ccn[nH]3)c2n1 (stereo not given) + CN(C)c1ccc(Nc2c3ccc(NC(=O)CCN4CCCC4)cc3nc3cc(NC(=O)CCN4CCCC4)ccc23)cc1", "discrete.label": "T"}
{"molecule": "Cc1cccc(N(C)C(=O)C2C(O)CCN2c2nc(C)cc(C(F)(F)F)c2C#N)c1 (stereo not given) + Cc1[nH]c2ccc(F)cc2c1-c1nc2c3cccnc3c3ncccc3c2[nH]1", "discrete.label": "F"}

In the record for C=CC(=O)N1CCN(c2nc(=O)n(-c3c(C)ccnc3C(C)C)c3nc(-c4c(O)cccc4F)c(F)cc23)C(C)C1 (stereo not given) + Cc1cnc(CNC(=O)c2c(=O)c3ccc(N4CCCN(C)CC4)nc3n3c2sc2ccccc23)cn1 , is viability, T/C less than 50%?
F

In the record for COc1cccc2c1C(=O)c1c(O)c3c(c(O)c1C2=O)CC(O)(C(=O)CO)CC3OC1CC(N)C(O)C(C)O1 (stereo not given) + Cc1cnc(CNC(=O)c2c(=O)c3ccc(N4CCCN(C)CC4)nc3n3c2sc2ccccc23)cn1 , is viability, T/C less than 50%?
T

In the record for CCCS(=O)(=O)Nc1ccc(F)c(C(=O)c2c[nH]c3ncc(-c4ccc(Cl)cc4)cc23)c1F + Cc1cnc(CNC(=O)c2c(=O)c3ccc(N4CCCN(C)CC4)nc3n3c2sc2ccccc23)cn1 , is viability, T/C less than 50%?
T

In the record for CC(=O)O[C@H]1C(=O)[C@@]2(C)[C@H]([C@H](OC(=O)c3ccccc3)[C@]3(O)C[C@H](OC(=O)[C@H](O)[C@@H](NC(=O)c4ccccc4)c4ccccc4)C(C)=C1C3(C)C)[C@]1(OC(C)=O)CO[C@@H]1C[C@@H]2O + Cc1[nH]c2ccc(F)cc2c1-c1nc2c3cccnc3c3ncccc3c2[nH]1 , is viability, T/C less than 50%?
T

In the record for COc1ncnc(C2CC2)c1-c1ncc2cnn(Cc3ccc(-c4nc(C(F)(F)F)cn4C(C)C)cc3)c2n1 + CN(C)c1ccc(Nc2c3ccc(NC(=O)CCN4CCCC4)cc3nc3cc(NC(=O)CCN4CCCC4)ccc23)cc1 , is viability, T/C less than 50%?
F

###

# Tested on: 299254-011-R-J1-PDC complex spheroids viability
# assay.summary: Anticancer human tumor 299254-011-R-J1-PDC cell line growth inhibition [GQUAD];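 note: spheroids exposed to the agents for seven days before readout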;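 for viability, T/C: percent viability relative to DMSO vehicle control wells = 100%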
# conditions: second compound 3.16 µM; first compound 0.1 µM; stronger effect = lower value
I'd appreciate it if you could supply viability, T/C values for the items below.
One number for each entry, in %.

{"compound": "CC1COCCN1c1cc(C2(S(C)(=N)=O)CC2)nc(-c2ccnc3[nH]ccc23)n1 (configuration not stated) + CN(C)c1ccc(Nc2c3ccc(NC(=O)CCN4CCCC4)cc3nc3cc(NC(=O)CCN4CCCC4)ccc23)cc1", "assay.system": "299254-011-R-J1-PDC complex spheroids viability", "endpoint": "viability, T/C", "units.label": "%", "result.value": 100}

Now look at this one.
Recall the recorded viability, T/C for CC(=O)O[C@H]1C(=O)[C@@]2(C)[C@H]([C@H](OC(=O)c3ccccc3)[C@]3(O)C[C@H](OC(=O)[C@H](O)[C@@H](NC(=O)c4ccccc4)c4ccccc4)C(C)=C1C3(C)C)[C@]1(OC(C)=O)CO[C@@H]1C[C@@H]2O + Cc1[nH]c2ccc(F)cc2c1-c1nc2c3cccnc3c3ncccc3c2[nH]1 with 299254-011-R-J1-PDC complex spheroids viability and state it.
84.2

###

I'd appreciate it if you could supply viability, T/C values for the items below.
# Tested on: 299254-011-R-J1-PDC complex spheroids viability
# assay.summary: Anticancer human tumor 299254-011-R-J1-PDC cell line growth inhibition [GQUAD];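 note: spheroids exposed to the agents for seven days before readout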;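 for viability, T/C: percent viability relative to DMSO vehicle control wells = 100%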
# conditions: second compound 3.16 µM; first compound 10 µM; stronger effect = lower value
Answers are plain numbers, in %.

Some compounds with known viability, T/C results, for comparison:
{"compound": "Nc1ccn(C2OC(CO)C(O)C2(F)F)c(=O)n1 (stereo not given) + CN(C)c1ccc(Nc2c3ccc(NC(=O)CCN4CCCC4)cc3nc3cc(NC(=O)CCN4CCCC4)ccc23)cc1", "endpoint": "viability, T/C", "result.value": 59}
{"compound": "CCCS(=O)(=O)Nc1ccc(F)c(C(=O)c2c[nH]c3ncc(-c4ccc(Cl)cc4)cc23)c1F + CN(C)c1ccc(Nc2c3ccc(NC(=O)CCN4CCCC4)cc3nc3cc(NC(=O)CCN4CCCC4)ccc23)cc1", "endpoint": "viability, T/C", "result.value": 45.8}
{"compound": "CC(C)n1c(=O)n(C)c2cnc3cc(F)c(-c4ccc(OCCCN5CCCCC5)nc4)cc3c21 + Cc1cnc(CNC(=O)c2c(=O)c3ccc(N4CCCN(C)CC4)nc3n3c2sc2ccccc23)cn1", "endpoint": "viability, T/C", "result.value": 13.6}
{"compound": "O=C(c1cc(Cc2n[nH]c(=O)c3ccccc23)ccc1F)N1CCN(C(=O)C2CC2)CC1 + CN(C)c1ccc(Nc2c3ccc(NC(=O)CCN4CCCC4)cc3nc3cc(NC(=O)CCN4CCCC4)ccc23)cc1", "endpoint": "viability, T/C", "result.value": 68.1}
{"compound": "C=CC(=O)N1CCN(c2nc(=O)n(-c3c(C)ccnc3C(C)C)c3nc(-c4c(O)cccc4F)c(F)cc23)C(C)C1 (stereo not given) + CN(C)c1ccc(Nc2c3ccc(NC(=O)CCN4CCCC4)cc3nc3cc(NC(=O)CCN4CCCC4)ccc23)cc1", "endpoint": "viability, T/C", "result.value": 79.1}
{"compound": "COc1cc(C2c3cc4c(cc3C(OC3OC5COC(C)OC5C(O)C3O)C3COC(=O)C23)OCO4)cc(OC)c1O (stereo not given) + Cc1cnc(CNC(=O)c2c(=O)c3ccc(N4CCCN(C)CC4)nc3n3c2sc2ccccc23)cn1", "endpoint": "viability, T/C", "result.value": 59.2}
{"compound": "O=C(NO)c1cnc(N2CCN(S(=O)(=O)c3ccc4ccccc4c3)CC2)nc1 + CN(C)c1ccc(Nc2c3ccc(NC(=O)CCN4CCCC4)cc3nc3cc(NC(=O)CCN4CCCC4)ccc23)cc1", "endpoint": "viability, T/C", "result.value": 0.24}
{"compound": "CC(=O)O[C@H]1C(=O)[C@@]2(C)[C@H]([C@H](OC(=O)c3ccccc3)[C@]3(O)C[C@H](OC(=O)[C@H](O)[C@@H](NC(=O)c4ccccc4)c4ccccc4)C(C)=C1C3(C)C)[C@]1(OC(C)=O)CO[C@@H]1C[C@@H]2O + Cc1cnc(CNC(=O)c2c(=O)c3ccc(N4CCCN(C)CC4)nc3n3c2sc2ccccc23)cn1", "endpoint": "viability, T/C", "result.value": 29.2}
{"compound": "O=C(NO)c1cnc(N2CCN(S(=O)(=O)c3ccc4ccccc4c3)CC2)nc1 + Cc1[nH]c2ccc(F)cc2c1-c1nc2c3cccnc3c3ncccc3c2[nH]1", "endpoint": "viability, T/C", "result.value": 0.21}
{"compound": "CC(C)n1c(=O)n(C)c2cnc3cc(F)c(-c4ccc(OCCCN5CCCCC5)nc4)cc3c21 + CN(C)c1ccc(Nc2c3ccc(NC(=O)CCN4CCCC4)cc3nc3cc(NC(=O)CCN4CCCC4)ccc23)cc1", "endpoint": "viability, T/C", "result.value": 38.1}

Would you be so kind as to report viability, T/C for each listed record?
1. COc1ccc([C@@H](O)c2cc(-c3ncnc4cc(N5CCOCC5)ccc34)c(F)cc2Cl)nn1 + Cc1cnc(CNC(=O)c2c(=O)c3ccc(N4CCCN(C)CC4)nc3n3c2sc2ccccc23)cn1
2. CC1COCCN1c1cc(-c2ccnn2C)c2ccnc(-c3ccn[nH]3)c2n1 (stereo not given) + Cc1[nH]c2ccc(F)cc2c1-c1nc2c3cccnc3c3ncccc3c2[nH]1
3. C=CCn1c(=O)c2cnc(Nc3ccc(N4CCN(C)CC4)cc3)nc2n1-c1cccc(C(C)(C)O)n1 + CN(C)c1ccc(Nc2c3ccc(NC(=O)CCN4CCCC4)cc3nc3cc(NC(=O)CCN4CCCC4)ccc23)cc1
4. Cc1cccc(N(C)C(=O)C2C(O)CCN2c2nc(C)cc(C(F)(F)F)c2C#N)c1 (stereo not given) + Cc1cnc(CNC(=O)c2c(=O)c3ccc(N4CCCN(C)CC4)nc3n3c2sc2ccccc23)cn1
5. CC1COCCN1c1cc(C2(O)CC3CCC(C2)O3)c2cnn(-c3ccn[nH]3)c2n1 (stereo not given) + Cc1[nH]c2ccc(F)cc2c1-c1nc2c3cccnc3c3ncccc3c2[nH]1

1. 23.2
2. 15.2
3. 28.9
4. 85.5
5. 6.07

Would you be so kind as to report viability, T/C for each listed record?
1. COc1ncnc(C2CC2)c1-c1ncc2cnn(Cc3ccc(-c4nc(C(F)(F)F)cn4C(C)C)cc3)c2n1 + Cc1[nH]c2ccc(F)cc2c1-c1nc2c3cccnc3c3ncccc3c2[nH]1
2. O=C(NO)c1cnc(N2CCN(S(=O)(=O)c3ccc4ccccc4c3)CC2)nc1 + Cc1cnc(CNC(=O)c2c(=O)c3ccc(N4CCCN(C)CC4)nc3n3c2sc2ccccc23)cn1
3. O=c1[nH]cc(F)c(=O)[nH]1 + Cc1[nH]c2ccc(F)cc2c1-c1nc2c3cccnc3c3ncccc3c2[nH]1
4. Cc1cccc(N(C)C(=O)C2C(O)CCN2c2nc(C)cc(C(F)(F)F)c2C#N)c1 (stereo not given) + CN(C)c1ccc(Nc2c3ccc(NC(=O)CCN4CCCC4)cc3nc3cc(NC(=O)CCN4CCCC4)ccc23)cc1
5. C#Cc1c(F)ccc2cc(O)cc(-c3ncc4c(N5CC6CCC(C5)N6)nc(OCC56CCCN5CC(F)C6)nc4c3F)c12 (stereo not given) + Cc1[nH]c2ccc(F)cc2c1-c1nc2c3cccnc3c3ncccc3c2[nH]1

1: 106; 2: 0.16; 3: 107; 4: 80.4; 5: 91.7
